- System: SK-OV-3
- experimentDescription: NCI tumour cell line growth inhibition, 48 h
Activity calls are given as the source filed them. Rule as the data show it: active = GI50 up to about 1.1 µM and inactive = higher.
Classes to choose from: active, inactive

Sample answers from the record:
| compound | assignedClass |
| --- | --- |
| CN1C(=O)C(=Cc2ccc(Br)cc2)C(=O)N(C)C1=O | inactive |
| CC(=O)Nc1ccc2[nH]c(C(=O)N3CC(CCl)c4c3cc([N+](=O)[O-])c3ccccc43)cc2c1 (stereo not drawn) | active |
| Cc1sc2nc3n(c(=O)c2c1C)N=CN(c1ccc(F)cc1)C3 | inactive |
| O=C(O)CCC(=O)c1ccc(Cl)cc1 | inactive |
| CCn1c(SCc2nnc(Nc3ccccc3)s2)nc2ccccc2c1=O | inactive |

Problem: Fill in: this test's call for COC(=O)C1CC2CC(=NNC(N)=O)CC2C1 (stereo not drawn) is ___
Solution: inactive

Problem: Fill in: this test's call for CCOC(=O)c1cc(C(O)P2(=O)N(CC(C)(C)C)[C@@H]3CCCC[C@H]3N2CC(C)(C)C)cn1C(=O)OC(C)(C)C (stereo partly drawn) is ___
Solution: inactive

Problem: Fill in: this test's call for CC(=O)Nc1cccc(/N=N/N(C)C)c1 is ___
Solution: inactive

Problem: Fill in: this test's call for O=C1/C(=C\c2ccc(Cl)cc2)N=C(c2ccccc2)N1n1c(=O)cn[nH]c1=S is ___
Solution: inactive

Problem: Fill in: this test's call for N#C/N=C(/N)c1sc2nc3c(c(-c4ccc(Br)cc4)c2c1N)CCCC3 is ___
Solution: inactive

Problem: Fill in: this test's call for CC(=O)OCC1OC(n2c(C#N)cc(=O)[nH]c2=O)CC1OC(C)=O (stereo not drawn) is ___
Solution: inactive

Problem: Fill in: this test's call for CSc1nc(C)c2c(n1)SCC2 is ___
Solution: inactive

Problem: Fill in: this test's call for COc1cc2oc(=O)cc(C)c2cc1[N+](=O)[O-] is ___
Solution: inactive

Problem: Fill in: this test's call for Nc1ncnc2c1ncn2C1OC(COC2C(CO)OC(OC(C(=O)O)C(O)C(OP(=O)(O)O)C(O)C(=O)O)C(O)C2O)C(O)C1O (stereo not drawn) is ___
Solution: inactive

Problem: Fill in: this test's call for N=C(N)NCCN1CCCCCc2ccccc21 is ___
Solution: inactive

Problem: Fill in: this test's call for CN(CCC#N)c1ccc(/C=C2\SC(=S)NC2=O)cc1 is ___
Solution: inactive

Problem: Fill in: this test's call for COc1ccc(C(=O)C(C(=O)CC(=O)Nc2cccc(C(F)(F)F)c2)c2ccc(OC)cc2)cc1 (stereo not drawn) is ___
Solution: inactive

Problem: Fill in: this test's call for c1cncc(-c2ncc3cccnc3n2)c1 is ___
Solution: inactive

Problem: Fill in: this test's call for CC(=O)O[C@H]1CC[C@@]2(C)C(=CC[C@H]3C4=CC=C(C(C)=O)[C@@]4(C)CCC32)C1 (stereo partly drawn) is ___
Solution: inactive

Problem: Fill in: this test's call for CCC(c1c[nH]c2ccc(Br)cc12)c1c[nH]c2ccc(Br)cc12 is ___
Solution: inactive

Problem: Fill in: this test's call for COC(=O)C1=C(C(=O)OC)C(C(=O)c2ccc(Br)cc2)N2N=C(c3ccc(Cl)cc3)C=CC12 (stereo not drawn) is ___
Solution: inactive

Reference source: ChEMBL document CHEMBL1201862
